Attribute: cell count
Experiment: sensitizers of A549 cells to miR-34 induction, primary screen, imaging, A549 dox-inducible miR-34, nuclei and caspase counts (AID 1347080); note: test concentration not given here
Conditions: A549 miR-34 inducible, Hoechst nuclei count, 48 h; measured here: total cells with miR-34 induction; stronger effect = lower value
Metric: cell count

>>> assay_value("COc1cc(O)cc(C(=O)c2ccccc2)c1S(=O)(=O)O")
9730
>>> assay_value("CC(O)CC(C)(C)O (stereo unspecified)")
8730
>>> assay_value("C#C[C@]1(O)CC[C@H]2[C@@H]3CCC4=Cc5oncc5CC4(C)[C@H]3CCC21C (stereo partly specified)")
7310
>>> assay_value("CC(=O)O[C@]1(C(C)=O)CCC2C3C=C(Cl)C4=CC(=O)CC[C@]4(C)C3CC[C@@]21C (stereo partly specified)")
9770
>>> assay_value("NC(N)=NCC1COC2(CCCCC2)O1 (stereo unspecified)")
9550
>>> assay_value("CCNC1CN(CCCOC)S(=O)(=O)c2sc(S(N)(=O)=O)cc21 (stereo unspecified)")
8320
>>> assay_value("C/C=C\\C1=C(C(=O)O)N2C(=O)C(NC(=O)C(N)c3ccc(O)cc3)C2SC1 (stereo unspecified)")
11600
>>> assay_value("CO[C@@H]1[C@@H](O[C@@H]2O[C@H](C)[C@@H](O[C@H]3C[C@@](C)(O)[C@H](O)[C@H](C)O3)[C@H](N(C)C)[C@H]2O)[C@@H](CC=O)C[C@@H](C)[C@@H](O[C@H]2CC[C@H](N(C)C)[C@@H](C)O2)/C=C/C=C/C[C@H](C)OC(=O)C[C@H]1O")
10300
>>> assay_value("CSCC[C@H](NC(=O)[C@H](Cc1c[nH]c2ccccc12)NC(=O)[C@H](C)NC(=O)OC(C)(C)C)C(=O)N[C@@H](CC(=O)O)C(=O)N[C@@H](Cc1ccccc1)C(N)=O")
9410
>>> assay_value("C[C@]1(Cn2ccnn2)C(C(=O)O)N2C(=O)CC2S1(=O)=O (stereo partly specified)")
8100
>>> assay_value("CN[C@@H]1[C@@H](O[C@H]2O[C@H](CO)[C@@H](N)[C@H](O)[C@H]2O)O[C@H]2C[C@@H](N)[C@H](O[C@H]3[C@H](O)[C@@H](O)[C@H](N)C[C@@H]3N)O[C@@H]2[C@@H]1O")
12300
>>> assay_value("CCCCCCCCCCCCCCCC(=O)O[C@@H]1[C@@H](O)[C@@H](O)C([C@H](NC(=O)[C@@H]2C[C@@H](CCC)CN2C)[C@H](C)Cl)O[C@@H]1SC (stereo partly specified)")
10800
>>> assay_value("CCOC(=O)C1=C(N)Oc2ccc(Br)cc2C1C(C#N)C(=O)OCC (stereo unspecified)")
6950
>>> assay_value("C[C@H](NC(=O)Cc1cc(F)cc(F)c1)C(=O)N[C@H](C(=O)OC(C)(C)C)c1ccccc1")
8110
>>> assay_value("NCCOB(c1ccccc1)c1ccccc1")
8820
>>> assay_value("CN1C2CC[C@@H]1CC(OC(=O)[C@H](CO)c1ccccc1)C2 (stereo partly specified)")
10500
>>> assay_value("CC1(O)CCOC(=O)C1 (stereo unspecified)")
8270
>>> assay_value("CON=C(C(=O)N[C@@H]1C(=O)N2C(C(=O)O)=C(COC(N)=O)CS[C@H]12)c1ccco1")
10600
>>> assay_value("Cc1nc(N)cc(C[n+]2csc(CCO)c2C)n1")
12800
>>> assay_value("C#C[C@]1(O)CCC2C3CCC4=Cc5oncc5C[C@]4(C)C3CC[C@@]21C (stereo partly specified)")
9590
>>> assay_value("C[C@]12CCC3c4ccc(O)cc4CCC3C1CC[C@@H]2OC(=O)CCC1CCCC1 (stereo partly specified)")
11300
>>> assay_value("CC(C)[C@@H]1CC[C@@H](C)C[C@H]1O")
12500
>>> assay_value("NC[C@H]1O[C@H](OC2[C@@H](N)C[C@@H](N)[C@H](O[C@H]3O[C@H](CO)[C@@H](O)[C@H](N)[C@H]3O)[C@H]2O)[C@H](O)[C@@H](O)[C@@H]1O (stereo partly specified)")
11500
>>> assay_value("CCCC1O[C@@H]2CC3C4CCC5=CC(=O)C=CC5(C)C4[C@@H](O)CC3(C)[C@]2(C(=O)CO)O1 (stereo partly specified)")
6800
>>> assay_value("CN(C)c1cnccn1")
6710
>>> assay_value("CC(=O)CCCCn1cnc2c1c(=O)n(C)c(=O)n2C")
9610
>>> assay_value("CC(=O)O[C@H]1C[C@@]2(C)[C@@H](C[C@@H](O)C3[C@]2(C)CC[C@H]2[C@H](C)[C@H](O)CC[C@]32C)/C1=C(/CCC=C(C)C)C(=O)O (stereo partly specified)")
11800
>>> assay_value("C[N+](C)(C)C[C@H](O)CC(=O)[O-]")
11500
>>> assay_value("CC1CNc2c(cccc2S(=O)(=O)N[C@@H](CCCN=C(N)N)C(=O)N2CC[C@@H](C)C[C@@H]2C(=O)O)C1 (stereo partly specified)")
10400
>>> assay_value("CNC(=O)[C@H]1O[C@@H](n2cnc3c(NCc4cccc(I)c4)nc(Cl)nc32)[C@H](O)[C@@H]1O")
5880
>>> assay_value("C[C@]12C=CC(=O)C=C1CCC1C2[C@@H](O)C[C@@]2(C)C1CC[C@]2(O)C(=O)COP(=O)(O)O (stereo partly specified)")
6110
>>> assay_value("COc1ccnc(CS(=O)c2nc3cc(OC(F)F)ccc3[nH]2)c1OC (stereo unspecified)")
9070
>>> assay_value("CCN1CCN(C(=O)NC(C(=O)NC2C(=O)N3C(C(=O)O)=C(CSc4nnnn4C)CSC23)c2ccc(O)cc2)C(=O)C1=O (stereo unspecified)")
12000
>>> assay_value("FC(F)(F)COCC(F)(F)F")
10400
>>> assay_value("FC(F)(F)C(Cl)Br (stereo unspecified)")
12500
>>> assay_value("C#C[C@]1(O)CCC2C3CCC4=CC(=O)CC[C@@H]4C3CC[C@@]21CC (stereo partly specified)")
10400
